- Test method notes: BSK_3C_Vis: BioMAP Diversity Plus: 3C Assay for Morphology Visualization (AID 2283025);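 further: fitted both ways so gain or loss versus DMSO counts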
- Measurement parameters: primary human endothelial cells (HUVEC)
Calls of active or inactive are those of the source. How the source made its calls: active means hit-call score of the fitted dose curve at least 0.9, where 1 is the maximum; inactive means score below 0.9.
Outcome (select one): YES (active), NO (inactive)

Example results:
COc1cc(S(=O)(=O)O)c(C)cc1N=Nc1c(O)ccc2cc(S(=O)(=O)O)ccc12	NO
CCCCCCC(=O)OCC	NO
O=c1[nH]cc(F)c(=O)[nH]1	NO
C[C@]12C=CC(=O)C=C1CC[C@@H]1[C@@H]2C(=O)C[C@@]2(C)[C@H]1CC[C@]2(O)C(=O)CO	NO

Recorded test call requested for `C=CCc1ccc(O)c(OC)c1` NO

`CCCCCCCC=O` ? NO

Same read-out for `Cc1cccc(Nc2cc(Cl)nc(SCC(=O)O)n2)c1C` ? NO

Try CCCCC(CC)COC(=O)CC(C(=O)OCC(CC)CCCC)S(=O)(=O)O (configuration not stated) next. YES

====

- Test method notes: Tanguay_ZF_120hpf_MORT_legacy: (Legacy) Oregon State University Tanguay Lab 120 Hour Post-fertilization zebrafish Assay for Mortality (AID 2283633)
Active and inactive are the calls of the source. Rule for the calls: active = hit-call score of the fitted dose curve at least 0.9, where 1 is the maximum; inconclusive = response in the unintended direction; inactive = score below 0.9.
I would appreciate it if you answered using one of these outcomes: Y = active, N = inactive

O=C(O)Cc1ccccc1Nc1c(Cl)cccc1Cl	Y
CCCCN(CCCC)CCCC	N
Cc1ccccc1Cl	N

How did this test come out for `Cc1cccc(C)c1O` ? N

`CCCCCCOCCO` , same question. N

Then `C[C@]12C=CC(=O)C=C1CC[C@@H]1[C@@H]2C(=O)C[C@@]2(C)[C@H]1CC[C@]2(O)C(=O)CO` ? N

Entry to check: `CC(=O)OC/C=C(\C)CCC=C(C)C` N

# repeat for `CC(C)(C)c1cc(O)c(C(C)(C)C)cc1O` Y

Next entry: `CN1CCN(Cc2cc(-c3ccc4[nH]c(=O)oc4c3)co2)[C@@H](c2ccc(F)cc2)C1` N

Input `COc1ccc2c(c1)c(CC(=O)O)c(C)n2C(=O)c1ccc(Cl)cc1` N

Can you check `NCC1(Cc2noc(=O)[nH]2)CCCCC1` next? N

====

- Test method notes: ATG_AP_1_CIS: Attagene CIS-FACTORIAL HepG2 Assay for human Activator Protein 1 (AP-1) (AID 2282931)
- Measurement parameters: HepG2 Attagene cis-factorial AP-1 reporter mRNA; actives raise or lower the signal
Active and inactive are the calls of the source. The calls were made as follows: active = hit-call score of the fitted dose curve at least 0.9, where 1 is the maximum; inactive = score below 0.9.
Outcome field: choose from True for active, False for inactive

Examples from the recorded data:
CC(=O)OC/C=C(\C)CCC=C(C)C	False
Cc1cccc(Nc2cc(Cl)nc(SCC(=O)O)n2)c1C	False
CC=Cc1ccc(O)c(OC)c1	False

Per the assay record, what outcome was assigned to `C[Si]1(C)O[Si](C)(C)O[Si](C)(C)O[Si](C)(C)O1` ? False

How about `CCCCCCOCCO` ? False

====

- Tested on: Estrogen receptor (Homo sapiens)
- Test method notes: CCTE_Deisenroth_AIME_384WELL_LUC_Shift: CCTE's 384-well Estrogen Receptor Transactivation Assay with AIME metabolic competence data shift (ERTA luciferase; difference in metabolism positive and negative), Deisenroth Lab (AID 2284041);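 further: shift is response with S9 minus without S9 so positive means metabolism raised ER signal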
Activity calls are given as the source filed them. How the source made its calls: active means hit-call score of the fitted dose curve at least 0.9, where 1 is the maximum; inactive means score below 0.9.
Allowed answers: label 1 (active), label 0 (inactive)

O=c1c(O)c(-c2ccc(O)c(O)c2)oc2cc(O)cc(O)c12	label 1

# lookup: test call for `CNC(=O)[C@H]1O[C@@H](n2cnc3c(NCc4cc(Cl)ccc4OCc4cc(C)no4)ncnc32)[C@H](O)[C@@H]1N` label 0

What do we get for `C[Si]1(C)O[Si](C)(C)O[Si](C)(C)O[Si](C)(C)O1` ? label 0

Now give it for `Cc1ccc2ncccc2c1` too. label 0

How about this molecule: `Cc1ccc(N(C)C)cc1` label 0

What about `CCCc1cc(=O)[nH]c(=S)[nH]1` ? label 0

Next: CC1(C)CC(N=C=O)CC(C)(CN=C=O)C1 (stereo unspecified) label 0

Also `CCCCCCCCCCO` ? label 0

What about `Cc1cccc(C)c1O` ? label 0

Subsequent entry: `NCCO` label 0

Note, next up: `Cc1ccc(C)c(C)c1` label 0

# iterate: `COc1cc(C=O)ccc1O` label 0

And the next one, `C=CCc1ccc(O)c(OC)c1` ? label 0

Likewise for `CCNc1cccc(C)c1` ? label 0

Do the same for `C[C@]12C=CC(=O)C=C1CC[C@@H]1[C@@H]2C(=O)C[C@@]2(C)[C@H]1CC[C@]2(O)C(=O)CO` please label 0
